assayed_system: HSV-1 protease (assemblin) (Human herpesvirus 1, UniProt P10210)
Construct: encoding residues 1-288 of HSV-1 UL26 open reading frame and 32 heterologous amino acid; 6xHis (N); made in house
Sequence (P10210 1-288): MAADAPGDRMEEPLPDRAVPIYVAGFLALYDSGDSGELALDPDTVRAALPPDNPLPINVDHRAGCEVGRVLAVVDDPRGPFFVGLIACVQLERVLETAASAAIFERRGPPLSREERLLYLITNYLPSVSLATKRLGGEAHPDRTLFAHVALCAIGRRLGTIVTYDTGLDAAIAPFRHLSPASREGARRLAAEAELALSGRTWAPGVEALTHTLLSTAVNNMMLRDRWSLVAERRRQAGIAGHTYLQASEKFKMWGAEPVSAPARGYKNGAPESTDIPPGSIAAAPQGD
assay_name: Enzymatic assay for HSV-1 protease (assemblin) inhibition (FP assay / HPLC assay)
Format: biochemical
condition_notes: recombinant HSV-1 protease; 30 minute pre-incubation at room temperature; FP or HPLC format not stated; read-out: ENZYME IC50
# IC50 binned as bottom bin = under 2 µM, middle bin = from 2 µM up to 5 µM, top bin = 5 µM and over

Cc1cccc2nc(N(C)Cc3ccccc3)oc(=O)c12 [CC2, reference compound]
middle bin
Cc1c(NC(=O)OC(C)(C)C)ccc2nc(N3CCOCC3)oc(=O)c12
middle bin
C=CCN(C)c1nc2ccc(NC(=O)OC(C)(C)C)c(C)c2c(=O)o1
middle bin

Challenge: Bin this entry: CCN(CC)c1nc2cccc(C)c2c(=O)o1 [CC1, reference compound]
Response given: top bin

Challenge: Bin this entry: Cc1c(NC(=O)OC(C)(C)C)ccc2nc(N3CCN(S(=O)(=O)c4ccccc4)CC3)oc(=O)c12
Response given: bottom bin

Challenge: Bin this entry: Cc1c(NC(=O)OC(C)(C)C)ccc2nc(N(C)CCc3c[nH]c4ccccc34)oc(=O)c12
Response given: middle bin

Challenge: Bin this entry: Cc1c(NC(=O)OC(C)(C)C)ccc2nc(N3CCCC4CCCCC43)oc(=O)c12 (stereo not drawn)
Response given: top bin

Challenge: Bin this entry: Cc1c(NC(=O)c2c(F)cc(F)cc2F)ccc2nc(N(C(C)C)C(C)C)oc(=O)c12
Response given: top bin

Challenge: Bin this entry: Cc1c(NC(=O)OC(C)(C)C)ccc2nc(N(C)Cc3ccccn3)oc(=O)c12
Response given: bottom bin

Challenge: Bin this entry: Cc1c(NC(=O)c2ccccc2)ccc2nc(N(C)Cc3ccccc3)oc(=O)c12
Response given: bottom bin

Challenge: Bin this entry: CC(=O)N1CCN(c2nc3ccc(NC(=O)OC(C)(C)C)c(C)c3c(=O)o2)CC1
Response given: middle bin

* * *

assayed_system: Bovine pancreas α-chymotripsin (Bos taurus)
Construct: purchased Sigma type II; host or cells: bovine pancreas
assay_name: Chymotripsin assay
Type: biochemical
condition_notes: 50 μM compound; 30 minutes pre-incubation; read-out: INHIBITION AT 50 μM CHYMOTRYPSIN (%)
Parameter inhibition at 50 µM: see the listing below.
Give just the number in %; leave the unit off.

Solved entries (count: 3):
Cc1c(NC(=O)OC(C)(C)C)ccc2nc(N(C)C(C)C)oc(=O)c12 [Compound 10]
0
Cc1cccc2nc(N(C)CCN3CCOCC3)oc(=O)c12 [CC6, reference compound]
97
Cc1c(NC(=O)OC(C)(C)C)ccc2nc(N3CCN(C(=O)c4ccco4)CC3)oc(=O)c12 [Compound 14]
0

Challenge: Tell me its inhibition at 50 µM on Bovine pancreas α-chymotripsin (Bos taurus): Cc1c(Br)ccc2nc(N(C)Cc3ccccc3)oc(=O)c12 [CC4, reference compound]
Response given: 102

Challenge: Tell me its inhibition at 50 µM on Bovine pancreas α-chymotripsin (Bos taurus): COc1ccc(CN(C)c2nc3ccc(NC(=O)OC(C)(C)C)c(C)c3c(=O)o2)cc1 [Compound 3]
Response given: 0

Challenge: Tell me its inhibition at 50 µM on Bovine pancreas α-chymotripsin (Bos taurus): Cc1c(NC(=O)OC(C)(C)C)ccc2nc(N3CC=CCC3)oc(=O)c12 [Compound 8]
Response given: 0
